- Tested on: PmTbr T-box DNA-binding domain (GST fusion);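 also: 200 nM protein in PBS on universal arrays averaged over duplicate arrays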
- Sequence: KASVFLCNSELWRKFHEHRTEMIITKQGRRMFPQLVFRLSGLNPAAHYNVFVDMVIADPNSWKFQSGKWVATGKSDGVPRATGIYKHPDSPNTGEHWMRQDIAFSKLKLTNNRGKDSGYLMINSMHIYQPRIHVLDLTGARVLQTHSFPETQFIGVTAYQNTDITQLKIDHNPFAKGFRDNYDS
- protocol.text: PBM E-score of 8-mer (E-score (dimensionless, -0.5 to 0.5)); higher = stronger binding preference
- condition.set: the construct has about 5 more residues each side
The full ranking holds about 33,000 sequences; the median of “E-score (dimensionless, -0.5 to 0.5)” is about -0.049, and the highest 2% start at about 0.37. This excerpt belongs to a sample that is enriched for the highest values.
Field: class. Source value: PBM E-score of 8-mer. Ranges: bin A = under 0.04, bin B = from 0.04 up to 0.3, bin C = 0.3 and over

INSERT INTO measurements (seq, answer_label) VALUES
  ('CTCTCACC', 'bin C'),
  ('ACCATGGC', 'bin A'),
  ('GTGCCAAA', 'bin C'),
  ('ACTGTGAG', 'bin B'),
  ('AGTACTCC', 'bin A'),
  ('CTATCACC', 'bin C'),
  ('ACCACCAC', 'bin A'),
  ('AGGTGCCA', 'bin C'),
  ('AACACCAA', 'bin C'),
  ('GTGCTTGA', 'bin A'),
  ('CTCTCACA', 'bin C'),
  ('AAACCCGG', 'bin A'),
  ('CTGCCAAA', 'bin B'),
  ('CGGTGCGA', 'bin C'),
  ('AGGTGCCC', 'bin B'),
  ('GGACTTGA', 'bin A'),
  ('CGGTGCTA', 'bin C'),
  ('ACTGTGAA', 'bin C'),
  ('ATTAAGTC', 'bin A'),
  ('GATATCCC', 'bin A'),
  ('ACCTCACC', 'bin B'),
  ('GAAGGACA', 'bin A'),
  ('GCCTACCA', 'bin A'),
  ('CACCCATC', 'bin B'),
  ('GTAGTGCA', 'bin A'),
  ('AAATAACC', 'bin A'),
  ('ATCTCAAC', 'bin B'),
  ('ACTGTGAT', 'bin B'),
  ('ACGTGCCG', 'bin B'),
  ('CTGCTTGC', 'bin A'),
  ('ACCACCAT', 'bin B'),
  ('ACGTGCCA', 'bin C'),
  ('GTGTGCGA', 'bin C'),
  ('ATCTCACA', 'bin C'),
  ('GAACTATC', 'bin A'),
  ('GACACCAC', 'bin C'),
  ('CAAACCCC', 'bin A'),
  ('AGCTGCCA', 'bin B'),
  ('ATATCACC', 'bin C'),
  ('ATCTCTCA', 'bin B'),
  ('GCCACCAC', 'bin B'),
  ('GACACCAA', 'bin C'),
  ('TCTGTGAA', 'bin B'),
  ('AGTTCGCG', 'bin B');

====

- System: PmTbr T-box DNA-binding domain (GST fusion);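 also: 200 nM protein in PBS on universal arrays averaged over duplicate arrays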
- Sequence: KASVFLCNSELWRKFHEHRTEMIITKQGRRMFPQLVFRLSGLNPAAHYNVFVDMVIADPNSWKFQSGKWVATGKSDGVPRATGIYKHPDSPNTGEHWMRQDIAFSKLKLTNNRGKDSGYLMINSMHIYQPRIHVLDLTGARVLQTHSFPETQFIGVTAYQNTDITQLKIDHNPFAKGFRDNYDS
- protocol.text: PBM E-score of 8-mer (E-score (dimensionless, -0.5 to 0.5)); Tbr is Tbrain of the sea star Patiria miniata (Pm) or the sea urchin Strongylocentrotus purpuratus (Sp); higher = stronger binding preference
- condition.set: target sequence: T-box / the construct has about 5 more residues each side
Whole data set: some 33,000 sequences, median “E-score (dimensionless, -0.5 to 0.5)” near -0.049, cut for the highest 2% near 0.37. The sample as a whole holds a higher share of the highest values than the screen did.
# PBM E-score of 8-mer per entry
measurement.type: PBM E-score of 8-mer

INSERT INTO results (seq, test_target, experimental_value) VALUES
  ('CTTATGGC', 'PmTbr T-box DNA-binding domain (GST fusion)', -0.0928),
  ('CAAGCTCC', 'PmTbr T-box DNA-binding domain (GST fusion)', -0.181),
  ('CGCACTAG', 'PmTbr T-box DNA-binding domain (GST fusion)', 0.167),
  ('ACACCGGT', 'PmTbr T-box DNA-binding domain (GST fusion)', 0.22),
  ('CTTACACC', 'PmTbr T-box DNA-binding domain (GST fusion)', 0.395),
  ('TCACACCA', 'PmTbr T-box DNA-binding domain (GST fusion)', 0.481),
  ('ACTCTTCT', 'PmTbr T-box DNA-binding domain (GST fusion)', -0.264),
  ('CGAACACC', 'PmTbr T-box DNA-binding domain (GST fusion)', 0.342),
  ('CTTACACA', 'PmTbr T-box DNA-binding domain (GST fusion)', 0.277),
  ('TCAAATGA', 'PmTbr T-box DNA-binding domain (GST fusion)', -0.203),
  ('AGCCACGC', 'PmTbr T-box DNA-binding domain (GST fusion)', -0.0441),
  ('AATGGCTG', 'PmTbr T-box DNA-binding domain (GST fusion)', -0.207),
  ('CCTCACCA', 'PmTbr T-box DNA-binding domain (GST fusion)', 0.141),
  ('CGAATTCC', 'PmTbr T-box DNA-binding domain (GST fusion)', -0.164),
  ('CCACCTAC', 'PmTbr T-box DNA-binding domain (GST fusion)', 0.273),
  ('GTGATAGA', 'PmTbr T-box DNA-binding domain (GST fusion)', 0.297),
  ('CTCGAAGC', 'PmTbr T-box DNA-binding domain (GST fusion)', -0.0159),
  ('GCACAACA', 'PmTbr T-box DNA-binding domain (GST fusion)', 0.17),
  ('ATTACACC', 'PmTbr T-box DNA-binding domain (GST fusion)', 0.349),
  ('GTATGCCA', 'PmTbr T-box DNA-binding domain (GST fusion)', -0.0108),
  ('GGACCTAA', 'PmTbr T-box DNA-binding domain (GST fusion)', -0.0476),
  ('CCGGCTGC', 'PmTbr T-box DNA-binding domain (GST fusion)', -0.125),
  ('ATAACACC', 'PmTbr T-box DNA-binding domain (GST fusion)', 0.465),
  ('CGCTCATA', 'PmTbr T-box DNA-binding domain (GST fusion)', -0.0857),
  ('GTACCTAC', 'PmTbr T-box DNA-binding domain (GST fusion)', -0.272),
  ('GTAACACA', 'PmTbr T-box DNA-binding domain (GST fusion)', 0.337),
  ('ATAACAAA', 'PmTbr T-box DNA-binding domain (GST fusion)', -0.00818),
  ('CCACGTAC', 'PmTbr T-box DNA-binding domain (GST fusion)', 0.0376),
  ('ACACTTCT', 'PmTbr T-box DNA-binding domain (GST fusion)', 0.427),
  ('ACCGAATG', 'PmTbr T-box DNA-binding domain (GST fusion)', -0.119),
  ('TCACACAA', 'PmTbr T-box DNA-binding domain (GST fusion)', 0.414),
  ('CTAACACC', 'PmTbr T-box DNA-binding domain (GST fusion)', 0.475),
  ('ATTCACCA', 'PmTbr T-box DNA-binding domain (GST fusion)', 0.0566),
  ('AGACCCCT', 'PmTbr T-box DNA-binding domain (GST fusion)', -0.245),
  ('ATTCCCAG', 'PmTbr T-box DNA-binding domain (GST fusion)', -0.25),
  ('CTAACACA', 'PmTbr T-box DNA-binding domain (GST fusion)', 0.374),
  ('GCACCTAA', 'PmTbr T-box DNA-binding domain (GST fusion)', 0.373),
  ('ATAACACG', 'PmTbr T-box DNA-binding domain (GST fusion)', 0.325),
  ('AGTGTTAT', 'PmTbr T-box DNA-binding domain (GST fusion)', 0.397),
  ('AAGCAGTC', 'PmTbr T-box DNA-binding domain (GST fusion)', -0.167),
  ('GTACCTAA', 'PmTbr T-box DNA-binding domain (GST fusion)', -0.248),
  ('AGACCTAC', 'PmTbr T-box DNA-binding domain (GST fusion)', -0.292),
  ('CCACAACA', 'PmTbr T-box DNA-binding domain (GST fusion)', 0.203),
  ('GCACCTAC', 'PmTbr T-box DNA-binding domain (GST fusion)', 0.382),
  ('CTAACATC', 'PmTbr T-box DNA-binding domain (GST fusion)', -0.138),
  ('TCACAACA', 'PmTbr T-box DNA-binding domain (GST fusion)', 0.384);

The reported measurements were obtained from the supplement of paper PMC4166925.
